- test protocol: NCI Yeast Anticancer Drug Screen. Data for the mec2-1 strain (AID 157)
- run conditions: S. cerevisiae mec2-1 strain, at 50.0 µM (retest, dose inferred, filed as 5.0)
This is part of a sample that, as a whole, favours compounds with a hit. Of some 79,000 tested, about 15% had one in any assay. Active and inactive are the calls of the source. Cut-off read from the data, not from the text of the source: active = growth inhibition above about 70%; inactive = the rest.
Hi there, use one of these labels in your reply, thanks! active, inactive

molecule	group
CC(CC(C#CCN(C)C)N(C)C)CC(C)(C)C (stereo not given)	inactive
[Pt].c1ccc(P(CCP(CCP(c2ccccc2)c2ccccc2)CCP(c2ccccc2)c2ccccc2)c2ccccc2)cc1	active
Cn1c(=O)c2c(ncn2CCCCOc2ccc3c(c2)[n+]([O-])nc(N)[n+]3[O-])n(C)c1=O	inactive
[N-]=[N+]=Nc1c(-c2ccccc2)c(Cl)nc2ccccc12	active

Outcome logged for CCOC(=O)N1C2C=CC(=O)C(C=C2)N1C(=O)OCC (stereo not given) in this assay:
inactive

* * *

- test protocol: NCI Yeast Anticancer Drug Screen. Data for the rad50 strain (AID 155)
- run conditions: S. cerevisiae rad50 strain growth inhibition; at 5.0 µM (retest, dose inferred, filed as 0.5)
The panel holds about 79,000 compounds, 15% with a hit somewhere; the sample as a whole holds those more often. The source made the active and inactive calls. Rule as the data show it: active = growth inhibition above about 70%; inactive = the rest.
Your reply should match one of these outcome classes. active, inactive

compound	group
O=C1c2ccccc2C(=O)C2(C(c3ccccc3)c3ccccc3)N=NCC12 (stereo not drawn)	inactive
O=C(Oc1c(Cl)cc(Cl)c(Cl)c1Cl)Oc1c(Cl)cc(Cl)c(Cl)c1Cl	inactive
O=c1c2cc(Cl)ccc2[nH]c2cc(O)cc(O)c12	inactive
O=C1c2cccc(O)c2C(=O)c2c(OC3OC(CO)C(O)C(O)C3O)cccc21 (stereo not drawn)	inactive
Clc1ccc2c(NC3CCC(N4CCCCC4)CC3)ccnc2c1 (stereo not drawn)	active

Could you please tell me the result logged for c1ccc2cc3c(cc2c1)Nc1c2ccccc2nc2cccc-3c12 in this assay?
inactive

Hi team, can someone confirm the assay call for O=c1c2[nH]c3cccc(Cl)c3c2cnn1-c1ccc(F)cc1 ?
inactive

What was the test verdict on O=C1C(SCCO)=C(SCCO)C(=O)c2ccccc21 ?
inactive

Outcome? N=c1n(CC(=O)NC23CC4CC(CC(C4)C2)C3)c2ccccc2n1CC(=O)NC12CC3CC(CC(C3)C1)C2
inactive

Outcome? Nc1ncnc2c1c(-c1ccc(Cl)cc1)cn2-c1ccccc1
inactive

Per the assay record, what outcome was assigned to O=c1cccccc1[O-].O=c1cccccc1[O-].O=c1cccccc1[O-].[La+3] ?
active

Answer briefly: the call reported for C1CCC(CCNCCC2CCCCC2)CC1 in this assay.
inactive

Could you kindly confirm the outcome this assay logged for O=C1/C(=C/c2ccccc2)CN(C(=O)C(F)(F)F)C/C1=C\c1ccccc1 ?
inactive

Give the logged outcome of this assay for the following compound: NC(=S)n1nc(-c2ccccc2)c(N=Nc2ccccc2Cl)c1-c1ccccc1
inactive

Write down the call the test reported for this compound. Item: Cc1cc(Cl)c(O)c(-c2cc(-c3ccccc3O)c(C#N)c(N)n2)c1
inactive

* * *

- test protocol: NCI Yeast Anticancer Drug Screen. Data for the mec2-1 strain (AID 157)
- run conditions: S. cerevisiae mec2-1 strain, at 5.0 µM (retest, dose inferred, filed as 0.5)
About 79,000 compounds went through this panel and 15% of them were active in at least one assay; those are over-represented in the sample as a whole. Active and inactive are the calls of the source. Rule as the data show it: active = growth inhibition above about 70%; inactive = the rest.
One label from this list, please: active, inactive

compound	group
O=C1CN=C(c2ccccc2)N(c2ccccc2)N1	inactive

State the result this test recorded for COc1ccc2ccc(/C=C/[N+](=O)[O-])cc2c1OC .
inactive

Tell me the recorded outcome of this test for O=C(Oc1c(Cl)c(Cl)c(Cl)c(Cl)c1Cl)c1ccc(Cl)cc1 .
inactive

What is the recorded call for this compound in the test? Nc1c(Cl)nc(C(F)(F)F)nc1NCc1ccccc1
active
